Biological target: T1, HER-3 (human, on cells) (human, UniProt P21860 20-1342)
T1 construct: whole, on cells; also called ErbB3; HER-3+ cell lines
Assay: indirect FACS Scatchard analysis on cells
ASSAY METRIC: pKd
The scale used: pKd is minus the common logarithm of the concentration in molar units.

Q) Provide pKd value for the following binder: U1-58 (antibody, V domains shown) VH: QVQLVESGGGVVQPGRSLRLSCAASGFTFSSYGMHWVRQAPGKGLEWVAVIWYDGSNKYYADSVKGRFTISRDNSKNTLYLQMNSLRAEDTAVYYCARAARLDYYYGMDVWGQGTTVTVSS VL: DIQMTQSPSSLSASVGDRVSITCRASQSINSYLNWFQQKPGKAPQLLIFGASGLQSGVPSRFSGSGSGTDFTLTINSLQPEDFATYYCQQSYSSPLTFGQGTRLEIK
A) 8.19

Q) Provide pKd value for the following binder: U1-53 (antibody, V domains shown, also called mAb U1-53) VH: EVQLVESGGGLVQPGGSLRLSCAASGFTFSIYSMNWVRQAPGKGLEWVSYISSSSSTIYYADSVKGRFTISRDNAKNSLYLQMNSLRDEDTAVYYCARDRGDFDAFDIWGQGTMVTVSS VL: DIQMTQSPSSLSASVGDRVTITCQASQDITNYLNWYQQKPGKAPKLLIYDASNLETGVPSRFSGSGSGTDFTFTISSLQPEDIATYNCQQCENFPITFGQGTRLEIK
A) 10.09
